Where do the numbers come from? From PubChem BioAssay.

Test system: R275C/beta1
Test: modulators of BK channel variants, profiling panel, selectivity assay, cell-based, U2OS BacMam, thallium flux, beta subunits (AID 1259406);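 note: initial slope of Thallos dye fluorescence rise after thallium is added; log ratio against the mean of 0.3% DMSO vehicle wells on the same plate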
Conditions: at 30 µM
Active and inactive are the calls of the source.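 Rule for the calls: active = thallium flux through the channel raised or lowered by more than 3 SD from vehicle-only wells, actives on both sides; inactive = the rest.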
Write down the outcome that applies. Available outcomes: 1 = active, -1 = inactive

Example cases with answers are listed next.
1) Clc1ccccc1CN1CCc2sccc2C1: 1
2) COc1ccc2c3c1O[C@H]1C[C@@H](O)C=C[C@@]31CCN(C)C2: -1
3) CC(=O)N=c1sc(S(N)(=O)=O)nn1C: -1
4) CS(=O)(=O)c1ccc(C2=C(c3ccccc3)C(=O)OC2)cc1: -1
5) CC(C(=O)O)c1ccc(-c2ccccc2)c(F)c1 (configuration not stated): -1
6) CN(C)C(=O)C(CCN1CCC(O)(c2ccc(Cl)cc2)CC1)(c1ccccc1)c1ccccc1: -1
7) O=C(CCCN1CCC(O)(c2ccc(Cl)cc2)CC1)c1ccc(F)cc1: 1
8) COC(=O)C1=C(C)NC(C)=C(C(=O)OCCN(C)Cc2ccccc2)C1c1cccc([N+](=O)[O-])c1 (configuration not stated): -1

In this assay, the call recorded for Nc1ccn([C@@H]2O[C@H](CO)[C@@H](O)C2O)c(=O)n1 (some centres not stated) was what?
-1

In this assay, the call recorded for CN(C)CCC(c1ccc(Cl)cc1)c1ccccn1 (configuration not stated) was what?
1

In this assay, the call recorded for `COc1ccc(-c2oc3c(CC=C(C)C)c(O[C@@H]4O[C@H](CO)[C@@H](O)[C@H](O)[C@H]4O)cc(O)c3c(=O)c2O[C@@H]2O[C@@H](C)[C@H](O)[C@@H](O)[C@H]2O)cc1` was what?
-1
